- System: T47D (human ductal carcinoma)
- assayName: Cytotoxic activity, WST-1 assay
- Type: cell-based
- appliedConditions: Homo sapiens, 72 h, Neg = negative in the concentration used

molecule	readoutUnit	IC50
C=C(C)C1CC[C@]2(COC(=O)c3cn(CCCN)nn3)CC[C@]3(C)C(CCC4[C@@]5(C)CC[C@H](O)C(C)(C)C5CC[C@]43C)C12 (some centres unmarked) [Compound 5i]	µM	3.63
C=C(C)C1CC[C@]2(COC(=O)c3cn(Cc4ccc(F)cc4)nn3)CC[C@]3(C)C(CCC4[C@@]5(C)CC[C@H](O)C(C)(C)C5CC[C@]43C)C12 (some centres unmarked) [Compound 5b]	µM	8.5
C=C(C)C1CC[C@]2(COC(=O)c3cn(CSc4ccccc4)nn3)CC[C@]3(C)C(CCC4[C@@]5(C)CC[C@H](O)C(C)(C)C5CC[C@]43C)C12 (some centres unmarked) [Compound 5d]	µM	52.5
C=C(C)C1CC[C@]2(COC(=O)c3cn(CSc4ccccc4)nn3)CC[C@]3(C)C(CCC4[C@@]5(C)CC[C@H](OC(=O)c6cn(CSc7ccccc7)nn6)C(C)(C)C5CC[C@]43C)C12 (some centres unmarked) [Compound 6d]	µM	0.9
C=C(C)C1CC[C@]2(COC(=O)c3cn(CCCO)nn3)CC[C@]3(C)C(CCC4[C@@]5(C)CC[C@H](O)C(C)(C)C5CC[C@]43C)C12 (some centres unmarked) [Compound 5h]	µM	1.3
C=C(C)C1CC[C@]2(COC(=O)c3cn(CCCO)nn3)CC[C@]3(C)C(CCC4[C@@]5(C)CC[C@H](OC(=O)c6cn(CCCO)nn6)C(C)(C)C5CC[C@]43C)C12 (some centres unmarked) [Compound 6h]	µM	62.4
C=C(C)C1CC[C@]2(COC(=O)c3cn(Cc4ccccc4)nn3)CC[C@]3(C)C(CCC4[C@@]5(C)CC[C@H](O)C(C)(C)C5CC[C@]43C)C12 (some centres unmarked) [Compound 5a]	µM	10.5
C=C(C)C1CC[C@]2(COC(=O)c3cn(CC(=O)OCC)nn3)CC[C@]3(C)C(CCC4[C@@]5(C)CC[C@H](O)C(C)(C)C5CC[C@]43C)C12 (some centres unmarked) [Compound 5g]	µM	135
